# credit: patent US20240342214A1

# system tested: T1, human ENTPD3 (Ectonucleoside triphosphate diphosphohydrolase 3) expressed on cells (human, UniProt O75355 1-529)
# T1 construct: also called hENTPD3; huENTPD3
# T1 sequence: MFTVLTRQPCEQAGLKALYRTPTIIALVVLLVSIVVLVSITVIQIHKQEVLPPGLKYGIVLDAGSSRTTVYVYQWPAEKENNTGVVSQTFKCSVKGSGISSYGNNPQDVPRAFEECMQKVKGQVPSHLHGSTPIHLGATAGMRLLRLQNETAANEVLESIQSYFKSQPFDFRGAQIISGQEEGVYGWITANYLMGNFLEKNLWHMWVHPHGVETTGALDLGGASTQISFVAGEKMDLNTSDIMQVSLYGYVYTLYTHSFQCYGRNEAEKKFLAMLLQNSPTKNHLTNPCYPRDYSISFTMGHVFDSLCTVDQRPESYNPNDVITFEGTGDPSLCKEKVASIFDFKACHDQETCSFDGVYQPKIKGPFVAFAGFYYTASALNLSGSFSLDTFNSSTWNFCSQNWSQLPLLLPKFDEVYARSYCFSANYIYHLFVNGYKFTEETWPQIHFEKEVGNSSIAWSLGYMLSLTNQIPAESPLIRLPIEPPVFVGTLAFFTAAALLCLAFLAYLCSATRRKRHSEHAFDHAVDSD
# test protocol: flow cytometry; soluble scFv on transfected HEK293T cells; anti-His PE
# Protocol: scFv binders initially obtained by phage display cell panning were screened first for recognition of ENTPD3 expressed on cells. Therefore, soluble scFv were produced in E. coli and used to stain HEK293T cells transiently transfected with a vector expressing the recombinant protein and eGFP downstream separated by a P2A site. Secondary staining was performed by PE staining the His-Tag of soluble scFv. Cells were measured in flow cytometry for GFP (antigen expression) and PE (scFv binding).
value type: binding result

>  <binder>
hg012-C8 scFv (scFv, Soluble scFv made in E. coli, with Myc tag and His tag) scFv: QVTLKESGGGLVQPGRSLRLSCAASGFTFDDYAMHWVRQAPGKGLEWVSGISWNSGSIGYADSVKGRFTISRDNAKNSLYLQMNSLRAEDTALYYCAKGANYDILTGYRKDNWFDPWGQGTLVTVSSGSASAPKLEEGEFSEARVDIVMTQTPSTLSASVGDRVTITCRASQTISNWLAWYQQKPGKAPKLLIYKASTLESGVPSRFSGTGSGTEFTLTISSLQPDDFATYFCQQYHSYSRTFGQGTKVDVARTVAAPSVAAAGSEQKLISEEDLSHHHHHH

>  <experimental result>
binds

$$$$
>  <binder>
hg012-E4 scFv (scFv, Soluble scFv made in E. coli, with Myc tag and His tag) scFv: QVTLKESGGGLVQPGRSLRLSCAASGFTFDDYAMHWVRQAPGKGLEWVSGISWNSGSIGYADSVKGRFTISRDNAKNSLYLQMNSLRAEDTALYYCAKGANYDILTGYRKDNWFDPWGQGTLVTVSSGSASAPKLEEGEFSEARVDIVMTQSPATLSLSPGERATLSCRASQSVGSSLAWFQQKPGQAPRLLIYDASNRATGIPARFSGSGSGTDFTLTISSLEPEDFAVYYCQQRSNWPPYTFGQGTKLEIKRTVAAPSVAAAGSEQKLISEEDLSHHHHHH

>  <experimental result>
binds

$$$$
